# assayed.target: APOL1 G2 (Homo sapiens, UniProt O14791, DEL388-389)
# Construct: expressed in transfected cells; host or cells: HEK293 T-REx clonal lines: HEK T-REx/GCaMP6f/APOL1 G2 K6.3 in A1, HEK293/T-REx APOL1 G2/clone #2 in A2
# Sequence (O14791 with tags, fused parts or gaps DEL388-389): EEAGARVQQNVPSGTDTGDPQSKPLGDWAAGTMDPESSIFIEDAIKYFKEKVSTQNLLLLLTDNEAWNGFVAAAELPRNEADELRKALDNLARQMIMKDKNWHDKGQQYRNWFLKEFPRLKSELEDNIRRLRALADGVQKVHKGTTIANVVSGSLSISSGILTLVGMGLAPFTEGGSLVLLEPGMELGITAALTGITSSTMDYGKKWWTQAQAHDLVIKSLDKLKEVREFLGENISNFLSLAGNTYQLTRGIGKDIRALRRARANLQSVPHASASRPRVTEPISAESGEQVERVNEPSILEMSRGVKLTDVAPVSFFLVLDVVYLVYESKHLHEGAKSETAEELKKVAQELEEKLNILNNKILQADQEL
# procedure.summary: APOL1 calcium transport inhibition assay (GCaMP6f calcium influx, FLIPR) in HEK T-REx/GCaMP6f/APOL1 G2 K6.3 cells
# Format: cell-based
# run.conditions: inhibition of APOL1-mediated calcium influx; geometric mean of at least 2 assay runs, † = single assay run (technical duplicate)
# Source text: A HEK293 clonal cell line was generated to stably express GCaMP6f, a genetically encoded calcium indicator, and inducibly express APOL1 G2 (HEK T-REx/GCaMP6f/APOL1 G2 K6.3). […]
endpoint.label: AC50 (µM)

Solved entries (count: 2):
May I ask what AC50 has been recorded for `CS(=O)(=O)c1ccc(OC[C@@H]2CN(CCc3cccc(Cl)c3)CCN2)cc1` ?
0.143

Could you tell me which AC50 is on file for C[C@@H]1CN(CC(O)c2cc(C#N)cc(C#N)c2)C[C@H]1COc1ccc(S(C)(=O)=O)cc1 (single isomer, unassigned) [Compound 131] ?
0.394

A: CN=S(C)(=O)c1ccc(OC[C@@H]2CN(CCc3cccc(C#N)c3)C[C@H]2C)cc1 (single isomer, unassigned) [Compound 171]
B: CN(c1ccc(OC[C@H]2CCN(CCc3cccc(Cl)c3)C2)cc1)S(C)(=O)=O
Which item exceeds the other in AC50, A or B ? Response format: the label of the selected entry.
B

###

# assayed.target: APOL1 G2 (Homo sapiens, UniProt O14791, DEL388-389)
# Construct: expressed in transfected cells; host or cells: HEK293 T-REx clonal lines: HEK T-REx/GCaMP6f/APOL1 G2 K6.3 in A1, HEK293/T-REx APOL1 G2/clone #2 in A2
# procedure.summary: APOL1 calcium transport inhibition assay (GCaMP6f calcium influx, FLIPR) in HEK T-REx/GCaMP6f/APOL1 G2 K6.3 cells
# Assay type: cell-based
# run.conditions: inhibition of APOL1-mediated calcium influx; geometric mean of at least 2 assay runs, † = single assay run (technical duplicate)
endpoint.label: AC50 (nM)

// worked examples, AC50 included
Hi! What's the reported AC50 for C[C@@H]1C[C@H](COc2ccc(S(C)(=O)=O)cc2)CN1CC(O)c1cccc(C#N)c1 (single isomer, unassigned) [Compound 117] on APOL1 G2 (Homo sapiens, UniProt O14791, DEL388-389)?
1080

Param readout = AC50; param system = APOL1 G2 (Homo sapiens, UniProt O14791, DEL388-389); param query = `C[C@@H]1C[C@H](COc2ccc(S(C)(=O)=O)cc2)CN1CCc1cccc(Cl)c1` ; response: value
374

// fetch APOL1 G2 (Homo sapiens, UniProt O14791, DEL388-389) AC50 for `C[C@@H]1CN(CCc2cc(Cl)cc(C#N)c2)C[C@H]1COc1ccc(S(=O)(=O)CCO)cc1`
157

Return AC50 measured with APOL1 G2 (Homo sapiens, UniProt O14791, DEL388-389) given this molecule: C[C@@H]1CN(CCc2cccc(Cl)c2)C[C@H]1COc1ccc(S(C)(=O)=O)cc1 (single isomer, unassigned) [Compound 155]
1980

Give AC50 (APOL1 G2 (Homo sapiens, UniProt O14791, DEL388-389)) of the following molecule: CN=S(C)(=O)c1ccc(OC[C@@H]2CN(CCc3cc(Cl)cc(C#N)c3)CCN2)cc1 (stereo partly shown) [Compound 186]
6980

I'm curious: which AC50 was measured for C[C@@H]1C[C@H](COc2ccc(S(C)(=O)=O)cc2)CN1CC(O)c1cc(C#N)cc(C#N)c1 (single isomer, unassigned) [Compound 118] tested on APOL1 G2 (Homo sapiens, UniProt O14791, DEL388-389)?
936

1: C[C@@H]1CN(CC(O)c2cc(Cl)cc(C#N)c2)C[C@H]1COc1ccc(S(C)(=O)=O)cc1 (single isomer, unassigned) [Compound 122]
2: COCCS(=O)(=O)c1ccc(OC[C@@H]2CN(CCc3cccc(Cl)c3)C[C@H]2C)cc1 (single isomer, unassigned)
// select label with min value of measured AC50 from [ 1 , 2 ] Output the label that corresponds to your choice.
2
(2: 494 nM, 1: 709 nM)

I: C[C@@H]1C[C@H](COc2ccc(S(C)(=O)=O)cc2)CN1CCc1cc(C#N)cc(C#N)c1
II: CN(c1ccc(OC[C@H](O)CN2CCC(c3cccc(Cl)c3)C2(C)C)cc1)S(C)(=O)=O (single isomer, unassigned) [Compound 73]
I'm curious, which of these has a smaller AC50 number: I or II ? Mark your answer with the label of the selected entry.
I
(I: 510 nM, II: 3060 nM)

I: CN(c1ccc(OC[C@@H](O)CN2CCC(c3cccc(Cl)c3)C2(C)C)cc1)S(C)(=O)=O (single isomer, unassigned) [Compound 70]
II: C[C@@H]1CN(CCc2cc(Cl)cc(C#N)c2)C[C@H]1COc1ccc(S(=O)(=O)CCS(C)(=O)=O)cc1
Pick one: I or II . Which has the bigger AC50 number? When you have decided, please share the label of that item.
I

###

# assayed.target: APOL1 G2 (Homo sapiens, UniProt O14791, DEL388-389)
# Sequence (O14791 with tags, fused parts or gaps DEL388-389): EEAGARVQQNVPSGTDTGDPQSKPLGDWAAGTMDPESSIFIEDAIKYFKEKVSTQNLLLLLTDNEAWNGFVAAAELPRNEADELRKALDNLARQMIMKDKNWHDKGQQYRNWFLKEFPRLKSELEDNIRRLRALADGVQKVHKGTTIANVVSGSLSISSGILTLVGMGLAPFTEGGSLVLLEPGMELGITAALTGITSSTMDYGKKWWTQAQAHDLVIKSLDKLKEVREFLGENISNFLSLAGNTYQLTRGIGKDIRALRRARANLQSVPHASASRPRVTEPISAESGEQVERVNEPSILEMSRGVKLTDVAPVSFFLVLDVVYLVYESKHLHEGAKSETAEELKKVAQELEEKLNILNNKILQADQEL
# procedure.summary: Rescue of HEK293 cell death caused by overexpression of APOL1 (CellTiter-Glo luminescence), HEK293/T-REx APOL1 G2/clone #2
# run.conditions: reversal of cell death caused by overexpression of APOL1; geometric mean of at least 2 assay runs, † = single assay run (technical duplicate)
pEC50 values by entry
As a rule, pEC50 stands for the negative log10 of the concentration, concentration in M.

Please report the recorded pEC50 for CC1(C)CC(COc2ccc(S(C)(=O)=O)cc2)CN1CCc1cccc(Cl)c1 (single isomer, unassigned) [Compound 43] .
7.51

Turning to the following molecule.
Would you mind telling me what pEC50 value was observed for C[C@@H]1C[C@H](COc2ccc(S(C)(=O)=O)cc2)CN1CC(O)c1cc(Cl)cc(C#N)c1 (single isomer, unassigned) [Compound 114] ?
6.36

###

# assayed.target: APOL1 G2 (Homo sapiens, UniProt O14791, DEL388-389)
# Construct: expressed in transfected cells; host or cells: HEK293 T-REx clonal lines: HEK T-REx/GCaMP6f/APOL1 G2 K6.3 in A1, HEK293/T-REx APOL1 G2/clone #2 in A2
# procedure.summary: APOL1 calcium transport inhibition assay (GCaMP6f calcium influx, FLIPR) in HEK T-REx/GCaMP6f/APOL1 G2 K6.3 cells
# Type: cell-based
# run.conditions: inhibition of APOL1-mediated calcium influx; geometric mean of at least 2 assay runs, † = single assay run (technical duplicate)
endpoint.label: AC50 (nM)

Solved cases below.
// query AC50 value for entry `COc1ccc(Cl)cc1CCN1CCN[C@H](COc2ccc(S(C)(=O)=O)cc2)C1`
228

Any idea what AC50 was measured for `N#Cc1cc(Cl)cc(CCN2CCN[C@H](COc3ccc(S(=O)(=O)CCO)cc3)C2)c1` ?
396

# input compound: CC(CN1C[C@@H](COc2ccc(S(C)(=O)=O)cc2)[C@H](C)C1)c1cc(Cl)cc(C#N)c1 (single isomer, unassigned) [Compound 148] ; wanted: its AC50
615

Request the reported AC50 associated with CC(CN1C[C@@H](COc2ccc(S(C)(=O)=O)cc2)[C@H](C)C1)c1cc(Cl)cc(C#N)c1 (single isomer, unassigned) [Compound 147]
1110

1: CN(c1ccc(OC[C@H](O)CN2CCC(c3cccc(Cl)c3)C2(C)C)cc1)S(C)(=O)=O (single isomer, unassigned) [Compound 72]
2: CN(c1ccc(OC[C@@H](O)CN2CCC(c3cccc(Cl)c3)C2)cc1)S(C)(=O)=O (stereo partly shown) [Compound 74]
Which has the higher AC50, 1 or 2 ? Let me know the label of the one you choose.
2
(2: 1290 nM, 1: 314 nM)
